# Test system: Kv1.3 potassium channel (Homo sapiens, UniProt P22001)
# Construct: expressed in transfected cells
# Sequence (P22001 whole entry): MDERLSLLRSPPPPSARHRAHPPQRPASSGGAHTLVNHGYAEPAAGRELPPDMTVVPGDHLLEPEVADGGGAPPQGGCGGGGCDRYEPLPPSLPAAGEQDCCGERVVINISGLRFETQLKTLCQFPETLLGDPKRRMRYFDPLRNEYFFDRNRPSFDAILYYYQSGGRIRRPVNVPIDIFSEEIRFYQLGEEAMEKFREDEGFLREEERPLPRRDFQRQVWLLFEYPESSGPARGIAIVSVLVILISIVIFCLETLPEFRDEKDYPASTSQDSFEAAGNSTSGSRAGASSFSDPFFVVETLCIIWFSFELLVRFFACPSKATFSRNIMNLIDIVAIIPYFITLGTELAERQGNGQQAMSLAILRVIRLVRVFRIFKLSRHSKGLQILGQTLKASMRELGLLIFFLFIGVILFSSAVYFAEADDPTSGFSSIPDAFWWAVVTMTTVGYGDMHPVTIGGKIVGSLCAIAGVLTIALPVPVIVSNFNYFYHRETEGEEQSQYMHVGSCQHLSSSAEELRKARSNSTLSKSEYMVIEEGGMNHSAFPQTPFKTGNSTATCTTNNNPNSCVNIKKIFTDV
# Assay info: Kv1.3 potassium channel blocker activity, automated whole-cell patch clamp (Patchliner) in CHO-K1 cells stably expressing Kv1.3
# Type: cell-based
# Experimental context: CHO-K1 cells stably expressing Kv1.3; patch clamp, current inhibition; read-out: Kv1.3 IC50
pIC50: −log10 of the molar value.

>  <Compound>
O=C(NC1CNC1)C1CCCC(c2c(O)ccc(Cl)c2Cl)N1 (centres unmarked) [Compound 127]

>  <pIC50>
> 5.00

$$$$
>  <Compound>
O=C([C@H]1C[C@@H](c2c(O)ccc(Cl)c2Cl)CCN1)N1CCOCC1 (relative stereo) [Compound 80]

>  <pIC50>
> 5.00

$$$$
>  <Compound>
O=C(NC1CNC1)C1CCNC(c2c(O)ccc(Cl)c2Cl)C1 (centres unmarked) [Compound 126]

>  <pIC50>
> 5.00

$$$$
>  <Compound>
O=C(C[C@H]1C[C@@H](c2c(O)ccc(Cl)c2Cl)CCN1)NC1CCC1 (relative stereo) [Compound 111]

>  <pIC50>
> 6.00

$$$$
>  <Compound>
O=C(C1CC(c2c(O)ccc(Cl)c2Cl)CCN1)N1CCNCC1 (centres unmarked) [Compound 75]

>  <pIC50>
> 5.00

$$$$
